Target: UniProt:O95760
Details: 30 µM
Label true when inhibition >= 40%; otherwise false.

O=C(NCCN1CCNCC1)c1nc(-c2cc(F)cc(F)c2)oc1-c1ccccc1[N+](=O)[O-]: false
CN1CCN(CCNC(=O)c2nc(-c3cccc(F)c3)oc2-c2ccccc2)CC1: false
CN1CCN(CCNC(=O)c2nc(-c3cc(F)cc(F)c3)oc2-c2ccccc2)CC1: false

Request: I'd appreciate it if you could say whether CC(C)(C)OC(=O)N1CCN(CCNC(=O)c2nc(-c3ccc(C(F)(F)F)cc3)oc2-c2ccccc2[N+](=O)[O-])CC1 has inhibition at least equal to 40%.
Response: true

Request: I'd appreciate it if you could say whether CN(C)CCNC(=O)c1nc(-c2cc(F)cc(F)c2)oc1-c1ccccc1 has inhibition at least equal to 40%.
Response: false

Request: I'd appreciate it if you could say whether CCOC(=O)c1nc(-c2ccc(C(F)(F)F)cc2)oc1-c1ccc(N)cc1 has inhibition at least equal to 40%.
Response: false

Request: I'd appreciate it if you could say whether O=C(NCCN1CCCCC1)c1nc(-c2ccc(C(F)(F)F)cc2)oc1-c1ccccc1[N+](=O)[O-] has inhibition at least equal to 40%.
Response: true

Request: I'd appreciate it if you could say whether CCCNC(=O)c1nc(-c2ccc(C(F)(F)F)cc2)oc1-c1ccccc1OC(F)(F)F has inhibition at least equal to 40%.
Response: false

====

Assign pIC50 to each entry below.
Molecular target: IL33 and ST2 binding (Homo sapiens, UniProt O95760)
Assay: biochemical
One number for each entry, as −log10 of the molar value.

Recorded pIC50, per entry:
CCNC(=O)c1nc(-c2ccc(C(F)(F)F)cc2)oc1-c1cccc(SC)c1: 6.19
CCOC(=O)c1nc(-c2ccc(C(F)(F)F)cc2)oc1-c1cccc([N+](=O)[O-])c1: 5.77
CCOC(=O)c1nc(-c2ccc(C(F)(F)F)cc2)oc1-c1ccc([N+](=O)[O-])cc1: 6.04
CCOC(=O)c1nc(-c2ccc(C(F)(F)F)cc2)oc1-c1ccccc1OC: 5.90
CN(C)CCNC(=O)c1nc(-c2ccc(Cl)cc2)oc1-c1ccccc1[N+](=O)[O-]: 5.32
CCOC(=O)c1nc(-c2ccc(Cl)c(C(F)(F)F)c2)oc1-c1ccccc1: 5.28
CN(C)CCNC(=O)c1nc(-c2ccc(C#N)cc2)oc1-c1ccccc1: 5.19
CCOC(=O)c1nc(-c2cccc(Cl)c2)oc1-c1ccccc1: 4.93

Now look at this one.
Request: Looking for the measured pIC50 of CN(C)CCNC(=O)c1nc(-c2ccc([N+](=O)[O-])cc2)oc1-c1ccccc1[N+](=O)[O-] , can you help?
Response: 4.84

====

Target: IL33 and ST2 binding (Homo sapiens, UniProt O95760)
Details: 100 µM
Assign inhibition to each entry below.
Numbers only, in %.

CN(C)CCNC(=O)c1nc(-c2ccc(Cl)cc2)oc1-c1ccccc1[N+](=O)[O-]: 112
O=C(NCc1cccnc1)c1nc(-c2ccc(C(F)(F)F)cc2)oc1-c1ccccc1[N+](=O)[O-]: 8
CCOC(=O)c1nc(-c2cccc(Cl)c2)oc1-c1ccccc1: 108

Now look at this one.
Request: Looking for the measured inhibition of CSc1ccc(-c2nc(C(=O)NCCN3CCN(C)CC3)c(-c3ccccc3)o2)cc1 , can you help?
Response: 97

====

Target: IL33 and ST2 binding (Homo sapiens, UniProt O95760)
Settings: 30 µM
Label T when inhibition >= 10%; otherwise F.

Check out these entries, answers already filled in.
CN(C)CCNC(=O)c1nc(-c2ccc(C#N)cc2)oc1-c1ccccc1 [Compound 249]: T
CCOC(=O)c1nc(-c2ccc(-c3ccccc3)cc2)oc1-c1ccccc1 [Compound 81]: T
CCOC(=O)c1nc(-c2cccc(F)c2)oc1-c1ccccc1 [Compound 65]: T
O=C(c1nc(-c2ccc(C(F)(F)F)cc2)oc1-c1ccccc1[N+](=O)[O-])N1CCCC1 [Compound 138]: F

Request: I'd appreciate it if you could say whether CN(C)CCNC(=O)c1nc(-c2ccc(C(C)(C)C)cc2)oc1-c1ccccc1[N+](=O)[O-] [Compound 268] has inhibition at least equal to 10%.
Response: F

Request: I'd appreciate it if you could say whether CN(C)CCNC(=O)c1nc(-c2cccc(Cl)c2)oc1-c1ccccc1 [Compound 240] has inhibition at least equal to 10%.
Response: F

Request: I'd appreciate it if you could say whether CCOC(=O)c1nc(-c2cccc(Cl)c2)oc1-c1ccccc1 [Compound 75] has inhibition at least equal to 10%.
Response: T

Request: I'd appreciate it if you could say whether CN(C)CCNC(=O)c1nc(-c2cccc(OC(F)(F)F)c2)oc1-c1ccccc1[N+](=O)[O-] [Compound 201] has inhibition at least equal to 10%.
Response: F

Request: I'd appreciate it if you could say whether O=C(NCCc1ccc(O)cc1)c1nc(-c2ccc(C(F)(F)F)cc2)oc1-c1ccccc1 [Compound 130] has inhibition at least equal to 10%.
Response: T

Request: I'd appreciate it if you could say whether CCOC(=O)c1nc(-c2ccc(C(F)(F)F)cc2)oc1-c1ccc(NC(C)=O)cc1 [Compound 107] has inhibition at least equal to 10%.
Response: F

Request: I'd appreciate it if you could say whether CN1CCN(CCNC(=O)c2nc(-c3ccc(F)cc3)oc2-c2ccc([N+](=O)[O-])cc2)CC1 [Compound 230] has inhibition at least equal to 10%.
Response: T

Request: I'd appreciate it if you could say whether CN1CCN(CCNC(=O)c2nc(-c3cccc(Cl)c3)oc2-c2ccccc2[N+](=O)[O-])CC1 [Compound 243] has inhibition at least equal to 10%.
Response: T

Request: I'd appreciate it if you could say whether CN1CCN(CCNC(=O)c2nc(-c3cc(F)cc(F)c3)oc2-c2ccccc2[N+](=O)[O-])CC1 [Compound 238] has inhibition at least equal to 10%.
Response: T

Request: I'd appreciate it if you could say whether O=C(NCc1ccc(C(F)(F)F)cc1)c1nc(-c2ccc(C(F)(F)F)cc2)oc1-c1ccccc1[N+](=O)[O-] [Compound 148] has inhibition at least equal to 10%.
Response: T

Request: I'd appreciate it if you could say whether O=C(c1nc(-c2ccc(C(F)(F)F)cc2)oc1-c1ccccc1[N+](=O)[O-])N1CCN(C2CC2)CC1 [Compound 146] has inhibition at least equal to 10%.
Response: F

Request: I'd appreciate it if you could say whether CN(C)CCNC(=O)c1nc(-c2ccc(Cl)cc2)oc1-c1ccccc1[N+](=O)[O-] [Compound 246] has inhibition at least equal to 10%.
Response: T

Request: I'd appreciate it if you could say whether CN(C)CCNC(=O)c1nc(-c2ccc(C(F)(F)F)cc2)oc1-c1ccccc1[N+](=O)[O-] [Compound 131] has inhibition at least equal to 10%.
Response: T

====

Assign inhibition to each entry below.
Biological target: IL33 and ST2 binding (Homo sapiens)
Settings: 30 µM
Answers are plain numbers, in %.

CN1CCN(CCNC(=O)c2nc(-c3ccc(C(F)(F)F)cc3)oc2-c2ccccc2)CC1: -24
CN1CCN(CCNC(=O)c2nc(-c3ccc(Cl)cc3)oc2-c2ccccc2[N+](=O)[O-])CC1: 8

Request: Enter reported inhibition observed with IL33 and ST2 binding (Homo sapiens) for CN(C)CCNC(=O)c1nc(-c2ccc3ccccc3c2)oc1-c1ccccc1
Response: 6

====

Biological target: IL33 and ST2 binding (Homo sapiens, UniProt O95760);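 also: plate ELISA with coated Flag-tagged human IL-33 and His-tagged human ST2, bound ST2 detected by anti-His HRP and TMB absorbance at 450 nm, 2 h compound incubation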
Sequence (O95760 112-270 limits assumed): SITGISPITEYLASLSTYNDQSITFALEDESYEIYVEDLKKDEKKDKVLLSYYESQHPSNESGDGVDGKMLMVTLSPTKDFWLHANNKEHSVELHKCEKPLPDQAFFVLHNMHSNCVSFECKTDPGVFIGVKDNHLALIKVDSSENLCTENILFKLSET
Details: 30 µM
Label yes (1) when inhibition >= 20%; otherwise no (0).

CCOC(=O)c1nc(-c2cccc(OC(F)(F)F)c2)oc1-c1ccccc1: yes (1)
CN1CCN(CCNC(=O)c2nc(-c3ccc(OC(F)(F)F)cc3)oc2-c2ccccc2[N+](=O)[O-])CC1: yes (1)
CCOC(=O)c1nc(-c2ccc(C(C)(C)C)cc2)oc1-c1ccc(NC(C)=O)cc1: no (0)
CCOC(=O)c1nc(-c2ccc(C(F)(F)F)cc2)oc1-c1ccccc1[N+](=O)[O-]: yes (1)

Request: I'd appreciate it if you could say whether COc1ccc(-c2nc(C(=O)N3CCN(CCN(C)C)CC3)c(-c3ccccc3[N+](=O)[O-])o2)cc1 has inhibition at least equal to 20%.
Response: yes (1)

Request: I'd appreciate it if you could say whether CN(C)CCCN1CCN(C(=O)c2nc(-c3ccc(C(F)(F)F)cc3)oc2-c2ccccc2[N+](=O)[O-])CC1 has inhibition at least equal to 20%.
Response: no (0)

Request: I'd appreciate it if you could say whether CCOC(=O)c1nc(-c2ccc(OC)cc2)oc1-c1ccc([N+](=O)[O-])cc1 has inhibition at least equal to 20%.
Response: no (0)

Request: I'd appreciate it if you could say whether CC(=O)N1CCN(CCNC(=O)c2nc(-c3ccccc3C(F)(F)F)oc2-c2ccccc2)CC1 has inhibition at least equal to 20%.
Response: no (0)
